Entry source: paper PMC10981695

# study_system: RCT (regulatory C-terminus of KEA3, KEA3 AA495-776) (Arabidopsis thaliana, UniProt Q9M0Z3)
# Sequence (Q9M0Z3 495-776): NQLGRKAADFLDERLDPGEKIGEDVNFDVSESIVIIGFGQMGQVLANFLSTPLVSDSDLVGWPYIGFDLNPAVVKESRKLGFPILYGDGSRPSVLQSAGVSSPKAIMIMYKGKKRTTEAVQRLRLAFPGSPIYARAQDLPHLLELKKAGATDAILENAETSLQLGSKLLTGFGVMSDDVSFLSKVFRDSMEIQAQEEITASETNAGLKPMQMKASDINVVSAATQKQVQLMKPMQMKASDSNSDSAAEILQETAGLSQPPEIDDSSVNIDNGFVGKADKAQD
# protocol_text: temperature-related intensity change (TRIC), RED-tris-NTA labelled His-tag, one-site fit

{"molecule": "Nc1ncnc2c1ncn2[C@@H]1O[C@H](COP(=O)(O)OP(=O)(O)O)[C@@H](O)[C@H]1O [ADP]", "unit": "µM", "Kd": 51}
{"molecule": "Nc1ncnc2c1ncn2[C@@H]1O[C@H](COP(=O)(O)OP(=O)(O)OP(=O)(O)O)[C@@H](O)[C@H]1O [ATP]", "unit": "µM", "Kd": 42}
{"molecule": "NC(=O)c1ccc[n+]([C@@H]2O[C@H](COP(=O)(O)OP(=O)(O)OC[C@H]3O[C@@H](n4cnc5c(N)ncnc54)[C@H](OP(=O)(O)O)[C@@H]3O)[C@@H](O)[C@H]2O)c1 [NADP^+]", "unit": "µM", "Kd": 8}
{"molecule": "NC(=O)C1=CN([C@@H]2O[C@H](COP(=O)(O)OP(=O)(O)OC[C@H]3O[C@@H](n4cnc5c(N)ncnc54)[C@H](OP(=O)(O)O)[C@@H]3O)[C@@H](O)[C@H]2O)C=CC1 [NADPH]", "unit": "µM", "Kd": 38}
